The measurements presented in this section are drawn from patent US20110135636A1.

# Lookup of reported % inhibition keyed by entry
molecular target: T1, recombinant human EGFR extracellular domain with 6xHis (human, UniProt P00533 25-645); test: SPR competition, competitor Vectibix
T1 construct: In-house produced; also called 6xHis EGFR ECD; soluble human EGFR ECD; not shown: 6xHis tag
Use % as the unit, but write only the number.

For orientation, consider the following solved cases.
BINDER: antibody 1320 (antibody, human IgG1, kappa, V domains shown, Chimeric IgG1 kappa) VH: QVQLQQPGAELVKPGASMKLSCKASGYTFTNYWMHWVKQRPGQGLEWIGEINPSNGRTNYNEKFKSKATLTVDKSSSTAYMQLSSLTSEDSGVYYCAKGGNYYDYDWDYWGQGTTLTVSS VL: DIQMTQTTSSLSASLGDRVTISCSASQDISNYLNWYQQKPDGTVKLLIYHTSTLHSGVPSRFSGSGSGTDYSLTISNLEPEDIATYYCQQYSKLPWTFGGGTKLEIKR
% inhibition (%): 14
--
BINDER: antibody 1024 (antibody, human IgG1, kappa, V domains shown, Chimeric IgG1 kappa) VH: QVQLQQPGAELVEPGGSVKLSCKASGYTFTSHWMHWVKQRPGQGLEWIGEINPSSGRNNYNEKFKSKATLTVDKSSSTAYMQFSSLTSEDSAVYYCVRYYGYDEAMDYWGQGTSVTVSS VL: DIVMTQAAFSNPVTLGTSASISCRSSKSLLHSNGITYLYWYLQKPGQSPQLLIYQMSNLASGVPDRFSSSGSGTDFTLRISRVEAEDVGVYYCAQNLELPYTFGGGTKLEIKR
% inhibition (%): 82

Now look at this entry.
IN: Suppose we examine the binder antibody 1347 (antibody, human IgG1, kappa, V domains shown, Chimeric IgG1 kappa) VH: QVQLKESGPGLVAPSQSLSITCTVSGFSLTGHGVNWVRQPPGKGLEWLGMIWGDGSTDYNSTLKSRLSISKDNSKSQVFLKMNSLQTDDTARYYCARGYGYLYYFDYWGQGTTLTVSS VL: ENVLTQSPAIMSASPGEKVTMTCRASSSVSSSYLHWYQQKSGASPKLWIYSTSNLASGVPARFSGSGSGTSYSLTVNSVETEDAATYYCHQYSGFPFTFGSGTKLELKR ; what % inhibition value has been reported?
OUT: -5
